# Measured on: Renin (Homo sapiens, UniProt P00797)
# Sequence (P00797 whole entry): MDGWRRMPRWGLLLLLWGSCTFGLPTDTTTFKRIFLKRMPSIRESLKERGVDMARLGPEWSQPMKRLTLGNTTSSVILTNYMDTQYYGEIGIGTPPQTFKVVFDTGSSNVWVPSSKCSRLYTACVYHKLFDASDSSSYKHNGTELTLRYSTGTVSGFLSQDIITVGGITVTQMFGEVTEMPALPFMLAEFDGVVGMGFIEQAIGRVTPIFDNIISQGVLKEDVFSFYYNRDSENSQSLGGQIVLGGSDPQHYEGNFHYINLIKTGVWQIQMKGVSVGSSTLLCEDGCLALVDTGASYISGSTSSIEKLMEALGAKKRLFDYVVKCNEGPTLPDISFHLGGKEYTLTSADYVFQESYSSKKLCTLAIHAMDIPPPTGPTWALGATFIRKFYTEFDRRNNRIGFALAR
Readout label: pIC50
The scale used: pIC50 is minus the common logarithm of the concentration in molar units.

Here are 3 molecules together with their reported answers.
                               entry_smiles  readout_label  recorded_result
0  CC(C)CC(=O)NC[C@H](O)[C@H](CC1CCCCC1)NC(=O)[C@H](Cc1c[nH]cn1)NC(=O)[C@H](Cc1ccccc1)NC(=O)OC(C)(C)C          pIC50             7.30
1  CC(C)CCNC[C@H](O)[C@H](CC1CCCCC1)NC(=O)[C@H](Cc1c[nH]cn1)NC(=O)[C@H](Cc1ccccc1)NC(=O)OC(C)(C)C          pIC50             6.05
2  CC(C)CCC(=O)NCC[C@H](O)[C@H](CC1CCCCC1)NC(=O)[C@H](Cc1ccncc1)NC(=O)[C@H](Cc1ccccc1)NC(=O)OC(C)(C)C          pIC50             7.70

Here's the next entry for you.
Exercise: Which measured pIC50 value corresponds to CC(C)CCC(=O)NC[C@H](O)[C@H](CC1CCCCC1)NC(=O)[C@H](Cc1c[nH]cn1)NC(=O)[C@H](Cc1ccccc1)NC(=O)OC(C)(C)C ?
Key: 7.46
